Each recorded value in this set is attributed to patent US9783552B2.

- subjectOfTest: sGC α1/β1 heterodimer (Homo sapiens, UniProt Q02108+Q02153)
- Sequence (Q02108 whole entry): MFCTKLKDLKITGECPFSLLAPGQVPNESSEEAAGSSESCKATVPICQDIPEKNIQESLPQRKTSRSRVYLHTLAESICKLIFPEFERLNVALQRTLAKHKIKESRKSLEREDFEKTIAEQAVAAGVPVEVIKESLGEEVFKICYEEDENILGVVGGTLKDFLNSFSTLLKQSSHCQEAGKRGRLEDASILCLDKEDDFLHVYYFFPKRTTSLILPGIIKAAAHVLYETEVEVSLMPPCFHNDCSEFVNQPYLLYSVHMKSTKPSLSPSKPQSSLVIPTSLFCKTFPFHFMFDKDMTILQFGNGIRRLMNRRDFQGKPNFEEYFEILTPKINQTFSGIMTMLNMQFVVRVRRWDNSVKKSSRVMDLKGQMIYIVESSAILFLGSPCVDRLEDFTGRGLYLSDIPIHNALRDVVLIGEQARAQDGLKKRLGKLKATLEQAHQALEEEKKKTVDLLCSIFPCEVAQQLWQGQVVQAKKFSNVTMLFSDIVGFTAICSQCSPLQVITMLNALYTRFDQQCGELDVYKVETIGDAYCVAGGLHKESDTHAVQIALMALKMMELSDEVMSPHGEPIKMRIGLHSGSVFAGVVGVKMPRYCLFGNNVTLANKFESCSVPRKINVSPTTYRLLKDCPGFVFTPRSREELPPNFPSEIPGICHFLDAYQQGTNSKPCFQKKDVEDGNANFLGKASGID
- Sequence (Q02153 whole entry): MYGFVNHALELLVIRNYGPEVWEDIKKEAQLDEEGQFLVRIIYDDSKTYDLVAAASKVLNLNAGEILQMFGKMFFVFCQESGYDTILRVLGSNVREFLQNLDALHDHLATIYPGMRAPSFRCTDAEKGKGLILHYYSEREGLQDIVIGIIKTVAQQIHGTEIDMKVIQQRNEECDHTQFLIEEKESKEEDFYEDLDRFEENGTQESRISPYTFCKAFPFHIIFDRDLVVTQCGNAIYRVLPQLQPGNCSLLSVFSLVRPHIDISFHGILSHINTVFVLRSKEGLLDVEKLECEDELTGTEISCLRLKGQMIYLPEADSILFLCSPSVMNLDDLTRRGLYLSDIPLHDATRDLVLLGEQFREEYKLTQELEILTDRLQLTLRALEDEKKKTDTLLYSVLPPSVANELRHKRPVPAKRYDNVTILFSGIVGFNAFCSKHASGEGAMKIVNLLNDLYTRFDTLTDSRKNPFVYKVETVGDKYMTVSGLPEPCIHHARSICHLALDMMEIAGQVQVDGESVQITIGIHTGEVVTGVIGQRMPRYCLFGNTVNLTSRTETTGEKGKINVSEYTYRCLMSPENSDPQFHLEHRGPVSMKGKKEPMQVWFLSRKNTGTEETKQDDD
- test: Cell-Based sGC Functional Assay (CASA Assay)
- experimentalConditions: CHO-K1/sGC cells, intracellular cGMP by HTRF, 1 hr at 37° C.; IP from 4P fit; presence or absence of 1 μM DETA-NO not given
measuredMetric: log10 of EC50 (log10 of the value in nM)

molecule="Cn1ccc2c(-c3nc(N)c4c(n3)NC(=O)C4(C)c3ccccc3)nc(Cc3cccc(F)c3F)nc21 (single isomer, unassigned) [Example 64]" subjectoftest="sGC α1/β1 heterodimer (Homo sapiens, UniProt Q02108+Q02153)" valuereported=1.08
molecule="[2H]C([2H])([2H])n1ncc2c(-c3nc(N)c4c(n3)NC(=O)C4(C)C(=O)NC3CC3)nc(CCC(F)(F)C(F)(F)F)nc21 (single isomer, unassigned) [Example 32]" subjectoftest="sGC α1/β1 heterodimer (Homo sapiens, UniProt Q02108+Q02153)" valuereported=1.72
molecule="Cn1ncc2c(-c3nc(N)c4c(n3)NC(=O)C4(C)NCC3CC3)nc(CCC(F)(F)C(F)(F)F)nc21 (stereo not drawn) [Example 54]" subjectoftest="sGC α1/β1 heterodimer (Homo sapiens, UniProt Q02108+Q02153)" valuereported=1.94
molecule="[2H]C([2H])([2H])n1nnc2c(-c3nc(N)c4c(n3)NC(=O)C4(C)c3ccc(Cl)cc3)nc(CCC(F)(F)C(F)(F)F)nc21 (single isomer, unassigned) [Example 70]" subjectoftest="sGC α1/β1 heterodimer (Homo sapiens, UniProt Q02108+Q02153)" valuereported=2.51
molecule="CCn1ncc2c(-c3nc(N)c4c(n3)NC(=O)C4(C)c3ccc(F)cc3)nc(CCCC(F)(F)F)nc21 (single isomer, unassigned) [Example 20]" subjectoftest="sGC α1/β1 heterodimer (Homo sapiens, UniProt Q02108+Q02153)" valuereported=2.16
molecule="Cn1ncc2c(-c3nc(N)c4c(n3)NC(=O)C4(C)c3ccc(F)cc3)nc(Cc3cccc(F)c3F)nc21 (single isomer, unassigned) [Example 6]" subjectoftest="sGC α1/β1 heterodimer (Homo sapiens, UniProt Q02108+Q02153)" valuereported=2.20

====

- subjectOfTest: sGC α1/β1 heterodimer (Homo sapiens, UniProt Q02108+Q02153)
- Construct: expressed in transfected cells
- test: Cell-Based sGC Functional Assay (CASA Assay)
- experimentalConditions: CHO-K1/sGC cells; cGMP as percentage of maximum cGMP production of Compound A (=100% activation); read-out: % ACT (percent activation)
- Method: Biological Assays: Cell-Based sGC Functional Assay (CASA Assay) sGC is a heme-containing enzyme that converts GTP to secondary messenger cGMP. […] A CHO-K1 cell line stably expressing the sGC α1/β1 heterodimer was generated using a standard transfection protocol. […] The level of intracellular cGMP was determined using an HTRF-based assay kit (CisBio, 62GM2PEC), which detects the displacement of a fluorescence labeled cGMP from its specific antibody. […]
Here the recorded Emax is given for each entry.
measuredMetric: Emax

compound="[2H]C([2H])([2H])n1ncc2c(-c3nc(N)c4c(n3)NC(=O)C4(C)C3CC3)nc(CCC(F)(F)C(F)(F)F)nc21 (single isomer, unassigned) [Example 17]" measuredmetric=Emax valuereported=104%
compound="Cn1ccc2c(-c3nc(N)c4c(n3)NC(=O)C4(C)c3ccccc3)nc(Cc3cccc(F)c3F)nc21 (single isomer, unassigned) [Example 64]" measuredmetric=Emax valuereported=83%
compound="[2H]C([2H])([2H])n1ncc2c(-c3nc(N)c4c(n3)NC(=O)C4(C)C#C)nc(CCC(F)(F)C(F)(F)F)nc21 (single isomer, unassigned) [Example 22]" measuredmetric=Emax valuereported=128%
compound="Cn1ncc2c(-c3nc(N)c4c(n3)NC(=O)C4(C)c3ccccc3)nc(CCC(F)(F)F)nc21 (single isomer, unassigned) [Example 4]" measuredmetric=Emax valuereported=108%
compound="Cn1ncc2c(-c3nc(N)c4c(n3)NC(=O)C4(C)C(=O)NC3CC3)nc(Cc3cccc(F)c3F)nc21 (single isomer, unassigned) [Example 40]" measuredmetric=Emax valuereported=121%
compound="Cn1ncc2c(-c3nc(N)c4c(n3)NC(=O)C4(C)NC(=O)c3ccccn3)nc(CCC(F)(F)C(F)(F)F)nc21 (stereo not drawn) [Example 51]" measuredmetric=Emax valuereported=109%
